# % Inhibition (Mv-1-Lu cell line growth reestablishment) values compiled below
target-desc: TGF-β1 (Roche)
Sequence (P01137 279-390): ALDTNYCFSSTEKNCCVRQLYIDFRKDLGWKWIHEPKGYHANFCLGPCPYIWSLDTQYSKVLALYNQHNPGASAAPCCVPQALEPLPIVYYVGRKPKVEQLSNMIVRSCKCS
protocol: cell-based or functional assay
observable: % Inhibition (Mv-1-Lu cell line growth reestablishment) (%)

binder	observed-value
WFIPRSSWY [truncated peptide SEQ ID NO: 28 (T5)]	3.1
IWFIPRSSWYERA [truncated peptide SEQ ID NO: 26 (T3)]	4.5
KRIWFIPRSSWYERA (15-aa peptide) [TGF-β1 inhibitor peptide P17 (SEQ ID NO: 17)]	28.5
IWFIPRSSWYE [truncated peptide SEQ ID NO: 27 (T4)]	1.4
KRIWFIPRSSWYER [truncated peptide SEQ ID NO: 33 (T10)]	31.4
KRIWFIPRSS [truncated peptide SEQ ID NO: 35 (T12)]	6
